Values from ChEMBL document CHEMBL3861984

subject-of-test: UniProtKB P61073
experiment-notes: Displacement of biotinylated-TN14003 from CXCR4 in human MDA-MB-231 cells assessed as reduction in fluorescence preincubated for 10 mins followed by biotinylated-TN14003 addition measured after 30 mins by streptavidin-rhodamine staining based microscopic analysis
Type: cell-based
measurement-type: EC (nM)

FC(F)(F)c1ccc(NCc2cccc(CNc3ccc(C(F)(F)F)cc3)n2)cc1	1
CCc1ccc(NCc2cccc(CNc3ccc(CC)cc3)n2)cc1	1
COc1cccc(NCc2cccc(CNc3cccc(OC)c3)n2)c1	100
CCc1ccccc1NCc1cccc(CNc2ccccc2CC)n1	1

###

subject-of-test: C-X-C chemokine receptor type 4 (Homo sapiens, UniProt P61073)
Sequence (P61073 whole entry): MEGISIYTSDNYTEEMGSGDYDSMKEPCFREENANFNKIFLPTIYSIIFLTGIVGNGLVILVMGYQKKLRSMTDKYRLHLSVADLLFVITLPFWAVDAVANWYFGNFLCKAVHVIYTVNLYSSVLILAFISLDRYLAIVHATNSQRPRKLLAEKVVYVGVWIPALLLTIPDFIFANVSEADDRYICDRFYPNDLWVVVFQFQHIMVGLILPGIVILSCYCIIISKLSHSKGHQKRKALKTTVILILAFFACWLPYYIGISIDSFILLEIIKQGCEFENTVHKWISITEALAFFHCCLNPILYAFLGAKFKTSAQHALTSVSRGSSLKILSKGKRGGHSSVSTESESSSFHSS
experiment-notes: Displacement of biotinylated-TN14003 from CXCR4 in human MDA-MB-231 cells assessed as reduction in fluorescence preincubated for 10 mins followed by biotinylated-TN14003 addition measured after 30 mins by streptavidin-rhodamine staining based microscopic analysis
Assay type: cell-based
Reported EC is given for each of the following molecules.
measurement-type: EC (nM)

Cc1cccc(NCc2ccc(CNc3cccc(C)c3)nc2)c1	1
Fc1ccccc1NCc1cccc(CNc2ccccc2F)n1	1000
COc1ccccc1NCc1cccc(CNc2ccccc2OC)n1	1000
Clc1ccc(NCc2cccc(CNc3ccc(Cl)cc3)n2)cc1	100
COc1ccc(NCc2cccc(CNc3ccc(OC)cc3)n2)cc1	100
Fc1ccc(NCc2cccc(CNc3ccc(F)cc3)n2)cc1	100
Cc1cccc(NCc2cccc(CNc3cccc(C)c3)n2)c1	100
c1cc(CN2CCOCC2)nc(CN2CCOCC2)c1	10

###

subject-of-test: C-X-C chemokine receptor type 4 (Homo sapiens, UniProt P61073)
experiment-notes: Displacement of biotinylated-TN14003 from CXCR4 in human MDA-MB-231 cells assessed as reduction in fluorescence preincubated for 10 mins followed by biotinylated-TN14003 addition measured after 30 mins by streptavidin-rhodamine staining based microscopic analysis
Assay type: cell-based
measurement-type: EC (nM)

Clc1cccc(CNc2ccc(NCc3cccc(Cl)c3)nc2)c1	1000
FC(F)(F)c1cccc(NCc2cccc(CNc3cccc(C(F)(F)F)c3)n2)c1	1000
CCOc1ccc(CNc2ccc(NCc3ccc(OCC)cc3)nc2)cc1	100
Clc1cccc(NCc2cccc(CNc3cccc(Cl)c3)n2)c1	100
Fc1cccc(NCc2cccc(CNc3cccc(F)c3)n2)c1	10
COc1ccccc1NCc1ccc(CNc2ccccc2OC)nc1	100
CCc1cccc(NCc2cccc(CNc3cccc(CC)c3)n2)c1	1000
Cc1ccc(NCc2cccc(CNc3ccc(C)cc3)n2)cc1	1000
c1ccc(NCc2cccc(CNc3ccccc3)n2)cc1	100
COc1ccc(CNc2ccc(NCc3ccc(OC)cc3)nc2)cc1	1000
Fc1cccc(NCc2ccc(CNc3cccc(F)c3)nc2)c1	1000

###

System: Mus musculus
experiment-notes: Toxicity in carrageenan-induced paw edema C57BL/6J mouse model assessed as mortality at 10 mg/kg administered 30 mins after carrageenan challenge and then once daily following initial dose measured 74 hrs post inflammation induction and 2 hrs post last dose
Assay type: organism-based
condition-details: in vivo
measurement-type: Activity

Cc1cccc(NCc2cccc(CNc3cccc(C)c3)n2)c1	Non-Toxic
FC(F)(F)c1ccc(NCc2cccc(CNc3ccc(C(F)(F)F)cc3)n2)cc1	Non-Toxic
CCc1ccccc1NCc1cccc(CNc2ccccc2CC)n1	Non-Toxic

###

subject-of-test: C-X-C chemokine receptor type 4 (Homo sapiens)
experiment-notes: Inhibition of CXCR4/CXCL12 interaction-mediated chemotaxis in human MDA-MB-231 cells assessed as inhibition of cell invasion at 100 nM after 22 hrs by hematoxylin/eosin dye-based matrigel assay relative to control
measurement-type: inhibition (%)

Fc1cccc(NCc2cccc(CNc3cccc(F)c3)n2)c1	50
CCOc1ccc(CNc2ccc(NCc3ccc(OCC)cc3)nc2)cc1	60
Clc1cccc(NCc2cccc(CNc3cccc(Cl)c3)n2)c1	34
c1cc(CN2CCOCC2)nc(CN2CCOCC2)c1	63
COc1cccc(NCc2cccc(CNc3cccc(OC)c3)n2)c1	37
COc1ccccc1NCc1cccc(CNc2ccccc2OC)n1	0
Fc1ccc(NCc2cccc(CNc3ccc(F)cc3)n2)cc1	5
FC(F)(F)c1cccc(NCc2cccc(CNc3cccc(C(F)(F)F)c3)n2)c1	15
COc1ccc(NCc2cccc(CNc3ccc(OC)cc3)n2)cc1	5
Cc1cccc(NCc2ccc(CNc3cccc(C)c3)nc2)c1	58
